Test system: T-47D breast
TEST DETAILS: NCI-60 one-dose screen, 48 h (100 = growth as untreated, 0 = no growth, -100 = all killed)
EXPERIMENTAL CONDITIONS: 10 µM unless noted
Compounds without any hit were thinned out: in the full panel of roughly 83,000, 20% have a hit.
REPORTED PROPERTY: growth (%)

molecule=COc1cc(Nc2ccnc3ccc(Br)cc23)cc(OC)c1OC reported_property=growth val=40.9
molecule=COc1ccc(-c2oc(=O)ccc2-c2cc(OC)c(OC)c(OC)c2)cc1F reported_property=growth val=104
molecule=COc1ccc(Sc2[nH]c(C=O)c3ccccc23)cc1 reported_property=growth val=57.2
molecule=COC(=O)c1ccc(NC(N)=NCCC(C)(C)c2ccc(C(F)(F)F)cc2)nc1 reported_property=growth val=-3.4
molecule="CC1=C(C(=O)Nc2ccc(F)cc2)C(c2ccccc2)C2=C(CC(C)(C)CC2=O)N1 (stereo not given)" reported_property=growth val=63.6
molecule="Clc1ncnc2scc(C3COc4ccccc4O3)c12 (stereo not given)" reported_property=growth val=78.2
molecule=Cc1nc2n[nH]c(N)c2nc1C reported_property=growth val=101
molecule=CC1(C)CC[C@]2(C(=O)N3CCNCC3)CC[C@]3(C)C(=CC[C@@H]4[C@@]5(C)CCC(=O)C(C)(C)[C@@H]5CC[C@]43C)[C@@H]2C1 reported_property=growth val=102
molecule=CNCCCNc1ccnc2cc(Cl)ccc12 reported_property=growth val=-5.41
molecule=CNC(=O)c1cc(Oc2ccc(NC(=O)c3nc(S(C)(=O)=O)n(C)c3-c3ccc(F)cc3)cc2)ccn1 reported_property=growth val=61.5

###

Tested on: SR leukemia
TEST DETAILS: NCI-60 one-dose screen, 48 h
EXPERIMENTAL CONDITIONS: 10 µM unless noted
This is part of a sample that, as a whole, favours compounds with a hit. Of some 83,000 tested, about 20% had one in any assay. Calls of active or inactive are those of the source. The calls were made as follows: active = growth percent below 10; inactive = the rest.
Labels: active, inactive

compound="COc1ccc(C2C3=C(COC3=O)N(CCO)c3cc(OC)c(OC)cc32)cc1 (centres undefined)" label=inactive
compound="C=C1NC(=O)C(C(C)CC)NC(=O)C2CSCC(NC(=O)CCC(=O)O)C(=O)NC(Cc3ccccc3)C(=O)NC(C)C(=O)NC(CC(C)CC)C(=O)NC(C(=O)NC(Cc3ccccc3)C(=O)N3CCCC3C(=O)N2)C(C)OC(=O)C(CO)NC(=O)C(C(O)COC)N(C)C(=O)C(C(C)C)NC(=O)C(CC(C)CC)NC1=O (centres undefined)" label=inactive
compound=COc1ccc(/C(=C\c2cc(OC)c(OC)c(OC)c2)C(=O)N2CCN(c3ccccc3)CC2)cc1O label=inactive
compound=COc1cccc(NC(=O)[C@H](C(C)C)n2c(=O)[nH]c3ccccc3c2=O)c1 label=inactive
compound=CN(C)c1ccc(C(c2ccccc2)c2ccc(N(C)C)cc2)cc1 label=inactive
compound="COc1cc(NC(C)CCCN)c2ncccc2c1Sc1ccc(Cl)cc1 (centres undefined)" label=active
compound=O=C(NC1CC1)c1ccc(-c2nc3ccc4[nH]ncc4c3c3c2CCCC3)cc1 label=inactive
compound=O=C(CN1CCN(c2ccccc2)CC1)N1CCN(c2nnc(-c3ccc(Cl)cc3)c(-c3ccc(Cl)cc3)n2)CC1 label=inactive
compound=CCN(CC)CCNc1c(C)cc(CO)c(Cl)c1C label=inactive
compound="COc1cc(NCCCCC(C)N)c2nccc(C)c2c1 (centres undefined)" label=inactive
compound=COc1cc2nccc(Oc3ccc(NC(=O)C4(C(=O)Nc5c(F)cc(F)cc5F)CC4)cc3)c2cc1Oc1ccc(N)cn1 label=inactive
compound="CC(C)CC(NC(=O)C(CCCN=C(N)N)NC(=O)OCc1ccccc1)C(=O)NC(CNC(=O)/C=C/c1ccccc1)C(C)C (centres undefined)" label=inactive
compound=C/C(=C\C(=N\N=C(N)N)c1ccc(Cl)cc1)c1ccc(Cl)cc1 label=active
compound=CCOC(=O)NNc1cccc(Cl)c1 label=inactive
compound=C#CC[C@@H]1C[C@]2(C)[C@H]3CC=C4[C@H]5[C@@H](C)[C@H](C)CC[C@]5(C(=O)NCCCCN)CC[C@@]4(C)[C@]3(C)CC[C@H]2C(C)(C)[C@H]1OC(C)=O label=active
compound=CN1CCN(Cc2ccc(NC(=O)c3cnc(F)c(C#Cc4cnc(N)c5ncccc45)c3)cc2C(F)(F)F)CC1 label=inactive
compound="COc1ccc(C2CC(c3cccc(Nc4ccnc5cc(Cl)ccc45)c3)=NN2c2ccc(Cl)cc2)cc1 (centres undefined)" label=inactive
compound=Clc1ccc(-c2nc(Br)cn3ccnc23)cc1 label=inactive
compound=CN(C)CCOc1nc2c3ccncc3cc(-c3cccc(Cl)c3)c2c2cnccc12 label=active
compound=N#Cc1nc(-c2ccc(Cl)cc2)cc(-c2ccc(Nc3nc(N4CCCCC4)nc(N4CCCCC4)n3)cc2)c1N label=inactive
compound=C=CC[C@]1(O)CC[C@H]2[C@@H]3CCc4cc(O)ccc4[C@H]3CC[C@@]21C label=inactive
compound=CCOC(=O)c1c(NC(=O)c2ccccc2)sc2c(O)c(CN(CC)CC)ccc12 label=active
compound="CSC1=NC(=Nc2c(C)cccc2C)C2(CCC(C(C)(C)C)CC2)N1c1ccc(Cl)cc1 (centres undefined)" label=inactive
compound=CNC(=O)c1cc(Oc2ccc(NC(=O)c3nc(S(C)(=O)=O)sc3-c3ccc(F)cc3)cc2)ccn1 label=inactive
compound=COc1ccc2[nH]c(C(=O)OCc3ccc4cccc(O)c4n3)cc2c1 label=active
compound=O=c1[nH]c2ccccc2n2cc3cccnc3c12 label=inactive
compound=O=NN(CC(=O)NNc1ccccc1)CC(=O)NNc1ccccc1 label=inactive
compound=c1ccc(C(Nc2ccccn2)(c2ccccc2)c2ccccc2)cc1 label=inactive
compound=c1ccc(-c2[nH]c3ccccc3c2-c2ccccc2)cc1 label=inactive
compound=COc1cc2c(cc1C)NC(=O)/C2=C\c1c[nH]c2ccccc12 label=inactive
compound=O=C(C=P(c1ccccc1)(c1ccccc1)c1ccccc1)CCl label=active
compound=O=C(Nc1ccc(Br)cc1)Nc1ccccc1Cl label=inactive
compound=Cc1cccc(C(=O)O)n1 label=inactive
compound=COc1ccc(-c2nn(-c3cccc(Cl)c3)cc2/C=C2\C(=N)N(c3ccccc3)N=C2N)cc1 label=inactive
compound=COc1cc(C(=O)/C=C/c2cn(-c3ccccc3)nc2-c2cccc(Nc3ccnc4cc(Cl)ccc34)c2)cc(OC)c1OC label=active
compound=C/C(=N\OC(=O)Nc1ccccc1)c1ccccc1 label=inactive
compound=COC(=O)c1cc(Cl)cc([N+](=O)[O-])c1O label=inactive
compound=CC(C)c1[nH]ncc1-c1nc2ccc3[nH]ncc3c2c2c1CCCC2 label=active
compound="CCN(CC)CCC(CNc1ccnc2cc(Cl)ccc12)c1ccc(O)cc1 (centres undefined)" label=inactive
